Target: T1, 人CD43 (human CD43, UMG1 epitope), endogenous on human cells, cell lines and tissues (human, UniProt P16150 20-400)
T1 construct: The cells carry the natural protein; also called UMG1表位; UMG1抗原
T1 sequence: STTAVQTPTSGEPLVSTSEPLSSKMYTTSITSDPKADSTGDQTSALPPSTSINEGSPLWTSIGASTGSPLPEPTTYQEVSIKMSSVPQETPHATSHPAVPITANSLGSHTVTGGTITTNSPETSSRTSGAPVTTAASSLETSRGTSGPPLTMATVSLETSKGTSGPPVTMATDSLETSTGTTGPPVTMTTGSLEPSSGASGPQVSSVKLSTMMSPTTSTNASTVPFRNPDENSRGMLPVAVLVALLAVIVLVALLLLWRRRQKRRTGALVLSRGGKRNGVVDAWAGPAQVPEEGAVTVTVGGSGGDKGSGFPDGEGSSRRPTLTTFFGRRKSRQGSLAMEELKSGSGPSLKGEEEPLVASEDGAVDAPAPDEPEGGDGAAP
Test: flow cytometry (MFI) on HPB-ALL and H9 cells, 1 μg/ml, FITC mouse anti-human IgG

BINDER | binding result
人源化UMG1抗体 H2-L4 (antibody, IgG1, V domains shown, one of the 16 combinations of H1-4 with L1-4) VH: EVQLVESGGGLVQPGGSLRLSCVASGFTFSSFGMHWVRQAPGKGLEWVSYISSGSGNFYYVDTVKGRFTISRDNAKNSLYLQMNSLRAEDTAVYYCARSTYYHGSRGAMDYWGQGTLVTVSS VL: QVVMTQSPAFLSVTPGEKVTITCSASSSVSSMYWYQLKPDQAPKLLIYDTSKMASGVPIRFSGSGSGTDFTFTVSSVEAEDAATYYCQQWSSYPPITFGGGTKVEIK | binds
人源化UMG1抗体 H2-L3 (antibody, IgG1, V domains shown, one of the 16 combinations of H1-4 with L1-4) VH: EVQLVESGGGLVQPGGSLRLSCVASGFTFSSFGMHWVRQAPGKGLEWVSYISSGSGNFYYVDTVKGRFTISRDNAKNSLYLQMNSLRAEDTAVYYCARSTYYHGSRGAMDYWGQGTLVTVSS VL: QVVMTQSPAFLSVTPGEKVTITCSASSSVSSMYWYQQKPDQAPKLLIYDTSKMASGVPSRFSGSGSGTDFTFTISSLEAEDAATYYCQQWSSYPPITFGGGTKVEIK | binds
人源化UMG1抗体 H1-L1 (antibody, IgG1, V domains shown, one of the 16 combinations of H1-4 with L1-4) VH: EVQLVESGGGLVQPGGSLRLSCAASGFTFSSFGMHWVRQAPGKGLEWVSYISSGSGNFYYVDTVKGRFTISRDNAKNSLYLQMNSLRAEDTAVYYCARSTYYHGSRGAMDYWGQGTLVTVSS VL: EIVLTQSPATLSLSPGERATLSCSASSSVSSMYWYQQKPGLAPRLLIYDTSKMASGIPDRFSGSGSGTDFTLTISRLEPEDFAVYYCQQWSSYPPITFGQGTRLEIK | binds
